Value source: the supplement of paper PMC10567573

B1: FBF1 (parent)
chain: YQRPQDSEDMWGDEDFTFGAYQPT

Variants of: B1
experiment notes: protein stability index of a GFP-peptide fusion (GPS, HEK-293T) (PSI 1-6); higher = more stable;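 further: lentivirally expressed fusions sorted by FACS into six bins by GFP to DsRed ratio, PSI derived from sequencing read proportions per bin multiplied by bin number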
test conditions: c terminus: a fixed tail appended
Please respond with reported protein stability index for every item in the list.
Give bare numbers.

Examples from the recorded data:
Fill blank: measured protein stability index of the variant Q22G is ____. 2.86

Fill blank: measured protein stability index of the variant D13P is ____. 1.73

Give one value of protein stability index per listed variant.
1. G12T
2. E14G
3. A20V
4. F16S
5. A20F
6. G19H

[2.55, 1.88, 2.72, 3.29, 2.38, 2.67]
